Biological target: FGF receptor/BKL complex
Sequence (Q86Z14 whole entry, one chain of several): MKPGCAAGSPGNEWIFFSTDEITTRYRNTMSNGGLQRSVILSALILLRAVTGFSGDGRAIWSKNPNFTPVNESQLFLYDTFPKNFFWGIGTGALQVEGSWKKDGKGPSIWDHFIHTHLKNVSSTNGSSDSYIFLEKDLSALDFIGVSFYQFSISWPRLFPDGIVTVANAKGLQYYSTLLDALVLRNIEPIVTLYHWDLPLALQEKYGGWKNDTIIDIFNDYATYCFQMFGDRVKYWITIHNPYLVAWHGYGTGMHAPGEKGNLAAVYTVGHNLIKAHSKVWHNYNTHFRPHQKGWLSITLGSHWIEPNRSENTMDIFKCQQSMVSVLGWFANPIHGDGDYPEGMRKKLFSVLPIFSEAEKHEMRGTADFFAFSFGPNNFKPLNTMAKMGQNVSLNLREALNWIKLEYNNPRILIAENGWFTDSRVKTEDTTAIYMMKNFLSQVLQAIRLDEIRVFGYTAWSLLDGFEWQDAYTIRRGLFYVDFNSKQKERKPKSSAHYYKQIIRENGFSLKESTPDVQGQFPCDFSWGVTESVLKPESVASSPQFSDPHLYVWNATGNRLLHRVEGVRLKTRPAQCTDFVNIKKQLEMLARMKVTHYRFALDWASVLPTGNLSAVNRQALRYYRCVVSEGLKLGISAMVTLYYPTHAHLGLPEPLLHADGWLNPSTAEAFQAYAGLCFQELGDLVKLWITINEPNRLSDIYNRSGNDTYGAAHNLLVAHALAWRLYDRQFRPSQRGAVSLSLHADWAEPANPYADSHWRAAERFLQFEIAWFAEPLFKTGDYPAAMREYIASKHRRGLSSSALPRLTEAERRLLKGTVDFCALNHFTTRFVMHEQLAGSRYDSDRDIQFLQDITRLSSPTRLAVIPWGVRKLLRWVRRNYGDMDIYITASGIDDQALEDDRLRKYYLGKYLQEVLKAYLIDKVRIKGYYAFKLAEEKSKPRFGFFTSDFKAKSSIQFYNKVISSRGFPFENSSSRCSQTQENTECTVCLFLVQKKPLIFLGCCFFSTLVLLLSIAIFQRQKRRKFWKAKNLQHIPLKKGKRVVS
Assay: FGF receptor potency in an Erk phosphorylation assay in HEK293 overexpressing human BKL
Format: cell-based
Details: HEK293/BKL cells, pERK after 12 minutes, presence of 0.1% HSA; read-out: EC50 (0.1% HSA)
quantity_name: pEC50
pEC50 is a log-scale quantity: -log10 of the concentration expressed in molar.

IN: Provide measured pEC50 value, entry: 12-[[(1S)-4-[2-[2-[2-[2-[2-[2-[[(1S)-5-acetamido-1-carboxy-pentyl]amino]-2-oxo-ethoxy]ethoxy]ethylamino]-2-oxo-ethoxy]ethoxy]ethylamino]-1-carboxy-4-oxo-butyl]amino]-12-oxo-dodecanoic … (protein) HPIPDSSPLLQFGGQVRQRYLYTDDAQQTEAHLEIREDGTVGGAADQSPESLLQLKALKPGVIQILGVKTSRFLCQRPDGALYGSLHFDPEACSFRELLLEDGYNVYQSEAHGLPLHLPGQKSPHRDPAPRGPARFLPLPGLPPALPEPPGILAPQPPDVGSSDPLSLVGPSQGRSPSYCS
OUT: 8.47
